For each of the sequences below, state its PBM binding z-score.
Test system: RXRa DBDmut IVT, anti-RXR (DBD mutation: RXRa K156A/R161A, NR concentration 90 nM)
Test: PBM binding z-score (relative to random genomic background probes); higher = stronger binding; sequences stand for … in GC…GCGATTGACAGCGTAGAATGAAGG
// return just the number, without any unit appended

Q. Sample ATCTCTAGTTAACAAGTTCAGTGAAAGAGAGGAC — what was its PBM binding z-score?
A. 1.03

Q. Sample TGTCAAAGTTCAAAGATAACGTAAGTATCCACAC — what was its PBM binding z-score?
A. 4.22

Q. Sample TCTAGCAGCCCAGAGGGTCACTCAAGAGGTACGG — what was its PBM binding z-score?
A. -0.186

Q. Sample CGTCCAAGGTCAGACAGGTCAGTGAATGCCGAGT — what was its PBM binding z-score?
A. 3.11

Q. Sample TCATACAGGTAAATGCTAGGTGAAAGTCCGATCT — what was its PBM binding z-score?
A. 1.48

Q. Sample CCTTACGGGTCACTGACAGGTTATAGCCTTTGGA — what was its PBM binding z-score?
A. 2

Q. Sample CAAACTAGGTCACAGAGGTCACAGTCCGTGCGTA — what was its PBM binding z-score?
A. 2.76

Q. Sample ATCGAAAGGTCGACGAGGTGACTATACACCGTTT — what was its PBM binding z-score?
A. 1.17

Q. Sample CTCGTAAGGTCGGTTGAGGTGAGTATACGGATAA — what was its PBM binding z-score?
A. 1.26

Q. Sample CAGACTGGGGCAAGGTTACCATAACGCACAGCCA — what was its PBM binding z-score?
A. -0.141

Q. Sample ACTAGCAGGCCAAGTTTGGGTCACTGAAACAAAG — what was its PBM binding z-score?
A. -0.119

Q. Sample CGAACTAGGCCATTGACAGGACAGTGAATAGTAA — what was its PBM binding z-score?
A. 0.349

Q. Sample AGAATGAGGTTATACGGAGATCAGGGAAGAAAGT — what was its PBM binding z-score?
A. 1.68

Q. Sample CGTCCAAGGTTAGCAGGTCAGTGAAAGCGACGTG — what was its PBM binding z-score?
A. 0.446

Q. Sample TAGCCTTGGTCATTGGGCCAGTATAGTACGCATC — what was its PBM binding z-score?
A. -0.637

Q. Sample ATCGAAAGGTCGAAGGTGAGTTTACCCACCCGAA — what was its PBM binding z-score?
A. 1.41

Q. Sample AGTCAAAGTTCATCTAGGCAACGTAAGATATGCT — what was its PBM binding z-score?
A. 4.78

Q. Sample TCTGCTAGGTCAAGGATGGTCAGCTAATCTGCTA — what was its PBM binding z-score?
A. 0.94

Q. Sample TCGTGTAGATCAAAGGTTAAGAAAGCCGAAGCCT — what was its PBM binding z-score?
A. 0.608

Q. Sample TTACCAACGTGAAAGGTCGTTGATGCACGCCTTG — what was its PBM binding z-score?
A. 0.467

Q. Sample CCGACTGGGGTAAGGTTACCATAACGCACAGCCA — what was its PBM binding z-score?
A. -0.0386

Q. Sample TCGAGTAGGTTAGTCGGGGCATTCACCCAACATA — what was its PBM binding z-score?
A. 0.343

Q. Sample CCTACTGGGCCAAAAAAGTCATTGATGCCGATAA — what was its PBM binding z-score?
A. -0.134

Q. Sample TCATATAGGTAAACAGGTCAAAGTCCGTAAGTTA — what was its PBM binding z-score?
A. 1.54

Q. Sample ACTAGCAGGCCAAGTTTGGGCCACTCAAACAAAG — what was its PBM binding z-score?
A. -0.286

Q. Sample GGAACGAGGCCATTCGAGTTGATAGCATGGCGAT — what was its PBM binding z-score?
A. 2.13

The values you see were collected from the supplement of paper PMC6555819.
